# Test system: T98G
# EXPERIMENTAL_PROTOCOL: Effect of compound (10 uM) on doxorubicin-induced cytotoxicity towards T98G cell line expressing multidrug resistance associated protein 1 (MRP-1); Inactive
# Format: functional, cell-based
# CONDITION_SUMMARY: Homo sapiens
Active and inactive are the calls of the source. The calls are words filed in the database; no cut-off is given here.
READOUT: Effect

Recorded results for 5 compounds are shown here.
Asked: What value of Effect has been reported for the following compound? CCCCCCCCCCc1c(C)n(C(=O)c2ccc(Cl)cc2)c2ccc(S(=O)(=O)O)cc12
Given back: inactive

Asked: Entry Cc1c(Cc2ccccc2)c2cc(S(=O)(=O)O)ccc2n1C(=O)c1ccc(-c2ccccc2)cc1 has what Effect?
Given back: inactive

Asked: Which measured Effect value corresponds to COC(=O)CCCc1c(C)n(C(=O)c2ccco2)c2ccc(S(=O)(=O)O)cc12 ?
Given back: inactive

Asked: Return reported Effect; argument: O=C(c1ccc(Cl)cc1)n1c2c(c3cc(S(=O)(=O)O)ccc31)CCCCCC2
Given back: inactive

Asked: Value lookup for Effect; key = Cc1c(Cc2ccc(O)cc2)c2cc(S(=O)(=O)O)ccc2n1C(=O)c1ccc(-c2ccccc2)cc1
Given back: inactive

New cases:
Asked: Any idea what its Effect is? The compound is COc1ccc2c(c1)c(CCC(=O)O)c(C)n2C(=O)c1ccccn1
Given back: inactive

Asked: Sample O=C(c1ccc(Cl)cc1)n1c2c(c3cc(S(=O)(=O)O)ccc31)CSCC2 — what was its Effect?
Given back: inactive

Asked: What value of Effect has been reported for the following compound? Cc1c(Cc2ccccc2)c2cc(S(=O)(=O)O)ccc2n1C(=O)c1ccc(Cl)cc1
Given back: inactive

Asked: Which Effect value is on record for COc1ccc2c(c1)c(CC(=O)O)c(C)n2C(=O)c1ccccn1 ?
Given back: inactive

Hey, just so you know, these numbers are from ChEMBL document CHEMBL1142667.
